For each of the molecules below, state its IC50.
# test_system: PI3Kδ (p110δ/p85α) Recombinant Human Protein (Homo sapiens (Human), UniProt O00329)
# Sequence (O00329 whole entry): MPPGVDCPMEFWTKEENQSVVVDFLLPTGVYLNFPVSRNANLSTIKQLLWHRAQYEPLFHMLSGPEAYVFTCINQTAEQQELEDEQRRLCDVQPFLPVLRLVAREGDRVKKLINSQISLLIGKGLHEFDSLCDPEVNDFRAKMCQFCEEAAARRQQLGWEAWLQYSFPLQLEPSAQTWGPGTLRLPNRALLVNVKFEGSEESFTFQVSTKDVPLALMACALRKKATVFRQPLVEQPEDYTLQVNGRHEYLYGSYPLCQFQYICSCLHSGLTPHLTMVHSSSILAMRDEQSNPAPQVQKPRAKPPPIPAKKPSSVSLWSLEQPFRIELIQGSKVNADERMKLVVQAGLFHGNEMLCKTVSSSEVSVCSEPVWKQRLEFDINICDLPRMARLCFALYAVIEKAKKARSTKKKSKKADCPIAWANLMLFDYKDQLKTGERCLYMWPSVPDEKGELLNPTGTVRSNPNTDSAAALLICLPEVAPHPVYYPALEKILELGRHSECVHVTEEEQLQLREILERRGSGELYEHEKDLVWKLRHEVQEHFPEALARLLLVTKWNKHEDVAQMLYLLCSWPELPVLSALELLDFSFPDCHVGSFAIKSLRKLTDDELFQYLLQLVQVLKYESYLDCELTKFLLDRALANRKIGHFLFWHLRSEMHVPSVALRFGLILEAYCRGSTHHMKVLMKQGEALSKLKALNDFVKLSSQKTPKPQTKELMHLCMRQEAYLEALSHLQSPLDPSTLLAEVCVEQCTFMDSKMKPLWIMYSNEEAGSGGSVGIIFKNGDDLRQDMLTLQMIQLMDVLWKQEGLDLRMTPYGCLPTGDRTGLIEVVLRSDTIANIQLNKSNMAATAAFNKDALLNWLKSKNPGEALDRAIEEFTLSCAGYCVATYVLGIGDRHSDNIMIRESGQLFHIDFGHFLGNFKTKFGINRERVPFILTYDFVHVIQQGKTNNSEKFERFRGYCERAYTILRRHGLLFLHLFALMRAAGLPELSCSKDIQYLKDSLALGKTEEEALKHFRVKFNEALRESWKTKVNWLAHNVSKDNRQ
# Sequence (P27986 whole entry partner): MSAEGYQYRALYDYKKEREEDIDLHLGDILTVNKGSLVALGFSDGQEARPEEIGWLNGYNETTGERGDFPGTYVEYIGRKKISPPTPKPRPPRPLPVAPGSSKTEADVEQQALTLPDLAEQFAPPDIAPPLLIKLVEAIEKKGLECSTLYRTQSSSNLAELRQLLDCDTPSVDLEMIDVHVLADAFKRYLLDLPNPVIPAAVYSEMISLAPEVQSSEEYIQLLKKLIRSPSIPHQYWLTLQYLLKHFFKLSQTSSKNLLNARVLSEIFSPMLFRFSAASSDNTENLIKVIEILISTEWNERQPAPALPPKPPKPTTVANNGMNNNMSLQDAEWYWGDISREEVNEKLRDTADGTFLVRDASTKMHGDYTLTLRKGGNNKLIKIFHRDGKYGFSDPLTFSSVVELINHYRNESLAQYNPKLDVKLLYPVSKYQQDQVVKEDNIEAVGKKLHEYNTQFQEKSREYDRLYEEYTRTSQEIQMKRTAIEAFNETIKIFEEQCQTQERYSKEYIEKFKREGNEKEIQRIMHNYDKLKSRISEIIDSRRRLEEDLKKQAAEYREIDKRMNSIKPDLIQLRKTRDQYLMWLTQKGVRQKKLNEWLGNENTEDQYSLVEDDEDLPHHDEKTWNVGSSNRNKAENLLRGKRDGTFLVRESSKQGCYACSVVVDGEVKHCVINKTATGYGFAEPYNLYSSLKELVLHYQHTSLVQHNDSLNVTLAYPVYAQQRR
# assay: PI3Kδ Scintillation Proximity Assay
# Source text: Example C. PI3Kδ Scintillation Proximity Assay [γ-^33P]ATP (10 mCi/mL) and Wheat Germ Agglutinin (WGA) YSi SPA Scintillation Beads was purchased from Perkin-Elmer (Waltham, Mass.). Lipid kinase substrate, D-myo-Phosphatidylinositol 4,5-bisphosphate (PtdIns(4,5)P2)D (+)-sn-1,2-di-O-octanoylglyceryl, 3-O-phospho linked (PIP2), CAS 204858-53-7, was purchased from Echelon Biosciences (Salt Lake City, Utah). PI3Kδ (p110δ/p85α) Recombinant Human Protein was purchased from Eurofins (St Charles, Mo.). […]
Structures can show the parent of a compound that is named as a salt.

// solved cases for IC50 follow
# molecule, IC50
records = [
    ("[2H]C([2H])([2H])c1ccc(S(=O)(=O)NC23CC(CC#N)(C2)C3)cc1-c1cnc2c(N)nc(C)cn12 [Example 378, trifluoroacetate salt]", "100 to 500 nM"),
    ("Cc1ccc(S(=O)(=O)N(C)C23CC(N)(C2)C3)cc1-c1cnc2c(N)ncnn12 [Example 118, trifluoroacetate salt]", "100 to 500 nM"),
]

Give one value of IC50 per listed molecule.
1. Cc1ccc(S(=O)(=O)N2CC3CCOCC3C2)cc1-c1cnc2c(N)ncnn12 (stereo not shown)
2. CC(=O)NC1CCN(S(=O)(=O)c2ccc(C)c(-c3cnc4c(N)ncnn34)c2)C1 (stereo not shown)

Given back:
["100 to 500 nM", "500 to 2000 nM"]

###

# test_system: PI3Kγ (p110γ) Recombinant Human Protein (Homo sapiens (Human), UniProt P48736)
# Sequence (P48736 whole entry): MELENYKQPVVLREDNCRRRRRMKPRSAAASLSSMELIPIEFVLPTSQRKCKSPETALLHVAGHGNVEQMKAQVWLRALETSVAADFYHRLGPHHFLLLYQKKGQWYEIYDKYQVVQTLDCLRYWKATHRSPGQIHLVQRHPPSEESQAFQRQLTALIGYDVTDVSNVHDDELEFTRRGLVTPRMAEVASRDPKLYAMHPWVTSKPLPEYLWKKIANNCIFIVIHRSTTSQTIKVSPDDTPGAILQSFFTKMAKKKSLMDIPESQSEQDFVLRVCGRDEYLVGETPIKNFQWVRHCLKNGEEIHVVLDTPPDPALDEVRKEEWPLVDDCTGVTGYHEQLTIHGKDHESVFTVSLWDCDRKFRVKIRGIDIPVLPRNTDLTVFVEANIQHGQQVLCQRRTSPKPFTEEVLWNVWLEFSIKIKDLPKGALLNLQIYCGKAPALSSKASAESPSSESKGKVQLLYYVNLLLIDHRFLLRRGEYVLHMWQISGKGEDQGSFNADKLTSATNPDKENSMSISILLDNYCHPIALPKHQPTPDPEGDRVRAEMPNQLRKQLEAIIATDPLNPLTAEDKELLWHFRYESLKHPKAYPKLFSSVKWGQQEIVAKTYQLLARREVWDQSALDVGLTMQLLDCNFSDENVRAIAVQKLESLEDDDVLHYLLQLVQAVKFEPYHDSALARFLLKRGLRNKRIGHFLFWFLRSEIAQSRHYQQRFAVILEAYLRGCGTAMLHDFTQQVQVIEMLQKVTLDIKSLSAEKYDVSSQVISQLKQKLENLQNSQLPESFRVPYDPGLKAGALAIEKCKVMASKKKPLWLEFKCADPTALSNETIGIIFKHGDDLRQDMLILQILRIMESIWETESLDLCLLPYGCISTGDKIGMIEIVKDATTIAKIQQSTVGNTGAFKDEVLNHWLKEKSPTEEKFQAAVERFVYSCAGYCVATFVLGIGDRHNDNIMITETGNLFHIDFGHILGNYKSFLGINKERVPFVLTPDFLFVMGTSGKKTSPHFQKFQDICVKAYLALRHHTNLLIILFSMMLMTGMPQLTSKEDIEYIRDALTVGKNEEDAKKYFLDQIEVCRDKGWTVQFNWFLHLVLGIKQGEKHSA
# assay: PI3K-γ Scintillation Proximity Assay
# Format: biochemical
# test_settings: read-out: PI3Kγ IC50
Where a name gives a salt, the structure may show the parent alone.
measure: IC50

# compound, measure, observed_value
data = [
    ("Cc1ccc(S(=O)(=O)NC2COC2)cc1-c1cnc2c(N)ncnn12 [Example 104]", "IC50", "< 100 nM"),
    ("COc1cccc(F)c1-c1cn2c(-c3cc(S(C)(=O)=O)ccc3C)cnc2c(N)n1 [Example 478, trifluoroacetate]", "IC50", "100 to 500 nM"),
    ("Cc1ccc(S(=O)(=O)N(C)CC2(CO)CCC2)cc1-c1cnc2c(N)ncnn12 [Example 178]", "IC50", "< 100 nM"),
]

Give one value of IC50 per listed compound.
1. Cc1cn2c(-c3ccc(F)c(S(=O)(=O)NC45CC(C#N)(C4)C5)c3)cnc2c(N)n1 [Example 382, trifluoroacetate salt]
2. CCS(=O)(=O)Nc1cc(-c2cnc3c(N)nccn23)cnc1F [Example 14, bis(trifluoroacetate)]
3. COc1nc(CO)ccc1-c1cn2c(-c3cc(S(C)(=O)=O)ccc3C)cnc2c(N)n1 [Example 490, trifluoroacetate]
4. COc1cnccc1-c1cn2c(-c3cc(S(C)(=O)=O)ccc3C)cnc2c(N)n1 [Example 485, trifluoroacetate]

Given back:
1. 100 to 500 nM
2. < 100 nM
3. < 100 nM
4. < 100 nM

###

For each of the molecules below, state its pIC50.
# test_system: PI3Kδ (p110δ/p85α) Recombinant Human Protein (Homo sapiens (Human))
# assay: PI3Kδ Scintillation Proximity Assay
pIC50: −log10 of the molar value. Where a name gives a salt, the structure may show the parent alone.

// solved cases for pIC50 follow
# molecule, pIC50
rows = [
    ("Cc1cn2c(-c3cc(S(=O)(=O)NC45CCC(CO)(C4)C5)ccc3C)cnc2c(N)n1 [Example 262]", "> 7.00"),
    ("Nc1nc(C(F)(F)F)cn2c(-c3cc(S(=O)(=O)NC45CCC(CO)(C4)C5)ccc3Cl)cnc12 [Example 393]", "5.70 to 6.30"),
    ("Cc1ccc(S(=O)(=O)N2C[C@@H]3CCO[C@@H]3C2)cc1-c1cnc2c(N)ncnn12 (relative stereo) [Example 211]", "5.70 to 6.30"),
    ("Nc1nc(C(F)(F)F)cn2c(-c3ccc(F)c(S(=O)(=O)NC45CCC(CO)(C4)C5)c3)cnc12 [Example 398, trifluoroacetate salt]", "6.30 to 7.00"),
    ("Cc1ccc(S(=O)(=O)NC2CC2)cc1-c1cnc2c(N)nccn12 [Example 47]", "5.70 to 6.30"),
    ("Cc1ccc(S(=O)(=O)N[C@H]2CC[C@H](CC#N)CC2)cc1-c1cnc2c(N)ncnn12 [Example 184, trifluoroacetate]", "> 7.00"),
]

Here's the next entry for you.
Asked: Lab request: please report pIC50 under test system PI3Kδ (p110δ/p85α) Recombinant Human Protein (Homo sapiens (Human)) for Cc1nc(N)c2ncc(-c3ccc(F)c(S(=O)(=O)NC45CC(C#N)(C4)C5)c3)n2n1 [Example 388, trifluoroacetate salt]
Given back: 6.30 to 7.00

###

# test_system: PI3Kδ (p110δ/p85α) Recombinant Human Protein (Homo sapiens (Human))
# assay: PI3Kδ Scintillation Proximity Assay
pIC50: −log10 of the molar value. Structures can show the parent of a compound that is named as a salt.
measure: pIC50

# compound, measure, observed_value
measured = [
    ("COC(=O)C12CC(NS(=O)(=O)c3ccc(C)c(-c4cnc5c(N)ncnn45)c3)(C1)C2 [Example 88, trifluoroacetate salt]", "pIC50", "6.30 to 7.00"),
    ("Cc1ccc(S(=O)(=O)N2CCC[C@@H]2CO)cc1-c1cnc2c(N)ncnn12", "pIC50", "5.70 to 6.30"),
    ("Cc1ccc(S(=O)(=O)NC23CC(C(C)(C)O)(C2)C3)cc1-c1cnc2c(N)nc(C(F)(F)F)cn12 [Example 282, trifluoroacetate salt]", "pIC50", "6.30 to 7.00"),
]

Here's the next entry for you.
Asked: What measured pIC50 goes with CCS(=O)(=O)Nc1cc(-c2cnc3c(N)cccn23)cnc1F [Example 2, bis(trifluoroacetate)] ?
Given back: 5.70 to 6.30

###

# test_system: PI3Kδ (p110δ/p85α) Recombinant Human Protein (Homo sapiens (Human))
# assay: PI3Kδ Scintillation Proximity Assay
pIC50: −log10 of the molar value. Counter-ions that a name gives are not always drawn.
measure: pIC50

// solved cases for pIC50 follow
# molecule, pIC50
records = [
    ("Cc1ccc(S(=O)(=O)N[C@H]2CC[C@H](O)CC2)cc1-c1cnc2c(N)nc(-c3ccc(C(C)O)cc3F)cn12 (stereo partly shown)", "> 7.00"),
    ("Cc1ccc(S(=O)(=O)N(C)[C@H]2CC[C@H](O)CC2)cc1-c1cnc2c(N)nccn12", "6.30 to 7.00"),
    ("Cc1ccc(S(C)(=O)=O)cc1-c1cnc2c(N)nc(-c3cccc(CO)c3F)cn12", "6.30 to 7.00"),
    ("CO[C@@H]1CN(S(=O)(=O)c2ccc(C)c(-c3cnc4c(N)ncnn34)c2)C[C@H]1F", "6.30 to 7.00"),
    ("Cc1ccc(S(=O)(=O)N[C@H]2CC[C@H](O)CC2)cc1-c1cnc2c(N)c(Cl)ccn12 [Example 11, trifluoroacetate]", "5.70 to 6.30"),
]

Give one value of pIC50 per listed molecule.
1. COc1ncccc1-c1cn2c(-c3cc(S(C)(=O)=O)ccc3C)cnc2c(N)n1 [Example 477, trifluoroacetate]
2. Cc1ccc(S(=O)(=O)N2CC(N3CCOCC3)C2)cc1-c1cnc2c(N)ncnn12

Given back:
["6.30 to 7.00", "6.30 to 7.00"]

###

# test_system: PI3Kδ (p110δ/p85α) Recombinant Human Protein (Homo sapiens (Human))
# assay: PI3Kδ Scintillation Proximity Assay
Structures can show the parent of a compound that is named as a salt.
measure: IC50

// solved cases for IC50 follow
# molecule, IC50
measured = [
    ("Cc1ccc(S(=O)(=O)N2CCC(F)(F)C(O)C2)cc1-c1cnc2c(N)ncnn12 (stereo not shown) [Example 196]", "500 to 2000 nM"),
    ("Nc1nccn2c(-c3cc(S(=O)(=O)N[C@H]4CC[C@H](O)CC4)ccc3F)cnc12 [Example 42]", "500 to 2000 nM"),
    ("Cc1ccc(S(=O)(=O)N2C(C)CCCC2CO)cc1-c1cnc2c(N)ncnn12 (stereo not shown) [Example 157]", "500 to 2000 nM"),
    ("Cc1ccc(S(=O)(=O)N(C)CCC#N)cc1-c1cnc2c(N)ncnn12 [Example 154]", "> 2000 nM"),
    ("CNC(=O)c1cn2c(-c3cc(S(=O)(=O)N[C@H]4CC[C@H](CC#N)OC4)ccc3C)cnc2c(N)n1 [Example 449, trifluoroacetate salt]", "100 to 500 nM"),
    ("Cc1ccc(S(=O)(=O)NCC2(O)COC2)cc1-c1cnc2c(N)nc(C(F)(F)F)nn12 [Example 316, trifluoroacetate salt]", "100 to 500 nM"),
]

Asked: What measured IC50 goes with Cc1ccccc1-c1cn2c(-c3cc(S(=O)(=O)N[C@H]4CC[C@H](O)CC4)ccc3C)cnc2c(N)n1 [Example 17] ?
Given back: 100 to 500 nM
